Just for reference, paper PMC12416549 is where these values come from.

Target: T1, TNFR1 (Homo sapiens, UniProt P19438)
T1 chain: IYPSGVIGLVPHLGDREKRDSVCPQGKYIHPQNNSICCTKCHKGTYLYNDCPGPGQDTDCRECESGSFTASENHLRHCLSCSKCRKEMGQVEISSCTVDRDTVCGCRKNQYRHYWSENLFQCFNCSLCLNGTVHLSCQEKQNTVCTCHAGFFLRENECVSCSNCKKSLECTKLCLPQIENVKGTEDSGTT
Assay: yeast display SC50
Exercise: for every item that follows, state its recorded apparent Kd (screen).
Answers are plain numbers, in nM.

Worked cases, answers included:
binder	apparent Kd (screen) [nM]
E101V (designed binder) MTLQELLREEALRRAEAEAFRYALELLAEKFPEQKEYLLDLAEEIESQIRSLSGVDVEDVRKFLDKEWAWVKELLAEHPAELAEVEAARAARLAELRAEVVAKVAA	0.539
E77R (designed binder) MTLQELLREEALRRAEAEAFRYALELLAEKFPEQKEYLLDLAEEIESQIRSLSGVDVEDVRKFLDKEWAWVKELLARHPAELAEVEAARAARLAELRAEVEAKVAA	0.49
P79M (designed binder) MTLQELLREEALRRAEAEAFRYALELLAEKFPEQKEYLLDLAEEIESQIRSLSGVDVEDVRKFLDKEWAWVKELLAEHMAELAEVEAARAARLAELRAEVEAKVAA	0.446
A105W (designed binder) MTLQELLREEALRRAEAEAFRYALELLAEKFPEQKEYLLDLAEEIESQIRSLSGVDVEDVRKFLDKEWAWVKELLAEHPAELAEVEAARAARLAELRAEVEAKVWA	0.869
I49Q (designed binder) MTLQELLREEALRRAEAEAFRYALELLAEKFPEQKEYLLDLAEEIESQQRSLSGVDVEDVRKFLDKEWAWVKELLAEHPAELAEVEAARAARLAELRAEVEAKVAA	0.368
S51K (designed binder) MTLQELLREEALRRAEAEAFRYALELLAEKFPEQKEYLLDLAEEIESQIRKLSGVDVEDVRKFLDKEWAWVKELLAEHPAELAEVEAARAARLAELRAEVEAKVAA	1.27

// for each binder in input: emit apparent Kd (screen)
1. V100G (designed binder) MTLQELLREEALRRAEAEAFRYALELLAEKFPEQKEYLLDLAEEIESQIRSLSGVDVEDVRKFLDKEWAWVKELLAEHPAELAEVEAARAARLAELRAEGEAKVAA
2. E9K (designed binder) MTLQELLRKEALRRAEAEAFRYALELLAEKFPEQKEYLLDLAEEIESQIRSLSGVDVEDVRKFLDKEWAWVKELLAEHPAELAEVEAARAARLAELRAEVEAKVAA

### Response
[0.718, 1.86]
